Measured values drawn from PubChem BioAssay (NCI) for this set.

test system: UACC-62 melanoma; assay: NCI tumour cell line growth inhibition, 48 h
readout label: TGI

compound=O=C(O)c1ccccc1/C=N/NC1=NCCCCN1 test_value="> 100 µM"
compound=Cc1cc(C)c(S(=O)(=O)ONC(=O)OC(C)(C)C)c(C)c1 test_value="> 100 µM"
compound=COC(=O)[C@@H]1C[C@@H]2c3ccccc3N(S(=O)(=O)c3ccccc3)[C@@H]2N1C(=O)OC test_value="> 100 µM"
compound=O=C(Oc1ccccc1Cl)c1ccccc1Nc1ccnc(C(F)(F)F)c1 test_value="2.05 µM"
compound=Cc1nc(N)sc1C(=O)Nc1cc(C(=O)NCCCN(C)C)n(C)c1 test_value="> 100 µM"
compound="CCC1CCc2nc3sc(C(=O)Nc4ccccc4C)c(N)c3cc2C1 (stereo not given)" test_value="> 100 µM"
compound=CN(C[C@@H]1COCCO1)S(=O)(=O)Nc1ccc2ccc3ncc(-c4cnn(C)c4)cc3c(=O)c2c1 test_value="> 100 µM"
compound=CCS(=O)(=O)CCn1cnc2c1c(=O)n(C)c(=O)n2C test_value="> 100 µM"
compound="c1ccc(COCC2OC3c4ccccc4COC3C2OCc2ccccc2)cc1 (stereo not given)" test_value="> 100 µM"
compound="COc1ccc(/C(=N/NC(N)=O)C(c2ccc(OC)cc2)C2C(=O)Oc3ccccc32)cc1 (stereo not given)" test_value="> 100 µM"
compound=NCCN1CC2CCC(CC2)C1 test_value="> 10 µM"
compound="O=C1C2c3[nH]c4ccccc4c3[C@@H]3CCCCC3C2C(=O)N1c1ccccc1 (stereo not given in full)" test_value="38.5 µM"
compound=N#CCCN(CCN(C(=O)Nc1ccccc1)c1ccccc1)C(=O)Nc1ccccc1 test_value="> 100 µM"
compound=Cc1cc(NS(=O)(=O)c2ccc(Nc3c4ccccc4nc4ccc(C(=O)Nc5ccc(S(N)(=O)=O)cc5)cc34)cc2)no1 test_value="> 100 µM"
compound="COc1c(O)c2c(=O)cc(OC)c3c4c(OC)cc(=O)c5c(O)c(OC)c6c(c(c1C(C(C)=O)C6C(C)O)c23)c54 (stereo not given)" test_value="1.01 µM"
compound="CCC[CH2][Sn]([CH2]CCC)([O]C(=O)C1CCC(=O)N1)[O]C(=O)C1CCC(=O)N1 (stereo not given)" test_value="0.331 µM"
compound=CN(C)c1n/c(=N/c2ncn[nH]2)ss1 test_value="> 100 µM"
compound="O=C1c2c(O)cc(O)cc2OC(c2ccc(O)cc2O)C1O (stereo not given)" test_value="> 100 µM"
compound=COc1ccc(-c2ccc(/C=N/n3c(C)nn(CN4CCN(C)CC4)c3=S)o2)c([N+](=O)[O-])c1 test_value="> 100 µM"
compound="C=C(C)[C@@H]1CC[C@]2(COC3CCCCO3)CC[C@]3(C)[C@H](CC[C@@H]4[C@@]5(C)C=C(C=O)C(=O)C(C)(C)[C@@H]5CC[C@]43C)[C@@H]12 (stereo not given in full)" test_value="3.55 µM"

###

test system: SN12C renal; experiment: NCI tumour cell line growth inhibition, 48 h
readout label: TGI

structure_smiles_string=N=C(N)SCc1cccc2c(=O)cc(-c3ccccc3)oc12 test_value="25.9 µM"
structure_smiles_string=Cc1nc2n(c(=O)c1CCN1CCC(c3noc4cc(F)ccc34)CC1)CCCC2 test_value="> 50 µM"
structure_smiles_string=COc1ccc(-c2cc(=O)c3c(O)cc(C)cc3o2)cc1OC test_value="> 100 µM"
structure_smiles_string=Cc1nc(Nc2ccc([N+](=O)[O-])cc2)sc1C(/C=C/c1ccc(N(C)C)cc1)=N/NC(=O)c1ccccc1 test_value="> 100 µM"
structure_smiles_string=COc1ccc(CNc2nc3c(NC(C)=O)cc(C(F)(F)F)cc3nc2-c2ccccc2)cc1OC test_value="> 100 µM"
